System: large crabgrass
Experiment: Test B pre-/postemergence herbicide test
Type: in vivo, Digitaria sanguinalis
Details: preemergence, 125 g ai/ha; 0 to 100 scale, 0 is no effect, 100 is complete control
Endpoint: Plant response rating, Crabgrass, Large
Just the number, please, no unit attached.

Checklist item: Plant response rating, Crabgrass, Large tested on large crabgrass, entry CCn1nc(C(C)(C)C)cc1C(=O)Nc1cccc2c1CNC2=O , value?
20

Checklist item: Plant response rating, Crabgrass, Large tested on large crabgrass, entry CCn1nc(C(C)(C)C)cc1C(=O)Nc1cccc(C(=O)OC(C)C)c1C , value?
0

Checklist item: Plant response rating, Crabgrass, Large tested on large crabgrass, entry CCn1nc(C(C)(C)C)cc1C(=O)Nc1cccc(C(=O)OCC2CC2)c1C , value?
10

Checklist item: Plant response rating, Crabgrass, Large tested on large crabgrass, entry CC(=O)c1cc(NC(=O)c2cc(C(C)(C)C)nn2C)ccc1F , value?
0

Checklist item: Plant response rating, Crabgrass, Large tested on large crabgrass, entry C=CCOC(=O)c1cccc(NC(=O)c2cc(C(C)(C)C)nn2CC)c1C , value?
10

Checklist item: Plant response rating, Crabgrass, Large tested on large crabgrass, entry CCn1nc(C(C)(C)C)cc1C(=O)Nc1cccc(S(C)(=O)=O)c1 , value?
20

Checklist item: Plant response rating, Crabgrass, Large tested on large crabgrass, entry CC(=NO)c1cccc(NC(=O)c2cc(C(C)(C)C)nn2C)c1 , value?
100

====

Listing of entries alongside the reported Plant response rating, Foxtail, Giant.
Tested on: giant foxtail
Assay: Test B pre-/postemergence herbicide test
Type: in vivo, Setaria faberi
Conditions: Postemergence, 500 g ai/ha; visual rating after 13 to 15 days, scale 0 (no effect) to 100 (complete control)
Description: […] At the same time, plants selected from these crop and weed species and also blackgrass (Alopecurus myosuroides Huds.), wheat (Triticum aestivum L.) and wild oat (Avena fatua L.) were treated with postemergence applications of test chemicals formulated in the same manner. […] Treated plants and controls were maintained in a greenhouse for 13 to 15 days, after which time all species were compared to controls and visually evaluated. […]
Just the number, please, no unit attached.

Solved entries (count: 8):
Checklist item: Plant response rating, Foxtail, Giant tested on giant foxtail, entry CCOC(=O)c1cccc(NC(=O)c2cc(C(C)(C)C)nn2CCF)c1 , value?
40

Checklist item: Plant response rating, Foxtail, Giant tested on giant foxtail, entry CCn1nc(C(C)(C)C)cc1C(=O)Nc1cc(C(=O)OC(C)C)c(OC)cc1F , value?
40

Checklist item: Plant response rating, Foxtail, Giant tested on giant foxtail, entry CCn1nc(C(C)(C)C)cc1C(=O)Nc1cccc2c1CNC2=O , value?
10

Checklist item: Plant response rating, Foxtail, Giant tested on giant foxtail, entry CCn1nc(C(C)(C)C)cc1C(=O)Nc1cccc(C(=O)OC(C)C)c1C , value?
0

Checklist item: Plant response rating, Foxtail, Giant tested on giant foxtail, entry CCn1nc(C(C)(C)C)cc1C(=O)Nc1cc(C(=O)OC)c(OC)cc1F , value?
20

Checklist item: Plant response rating, Foxtail, Giant tested on giant foxtail, entry CC(=NO)c1cccc(NC(=O)c2cc(C(C)(C)C)nn2C)c1 , value?
30

Checklist item: Plant response rating, Foxtail, Giant tested on giant foxtail, entry C=CCOC(=O)c1cccc(NC(=O)c2cc(C(C)(C)C)nn2CC)c1C , value?
10

Checklist item: Plant response rating, Foxtail, Giant tested on giant foxtail, entry CCN(CC)C(=O)c1cccc(NC(=O)c2cc(C(C)(C)C)nn2CC(F)(F)F)c1 , value?
10

Now examine the next entry.
Checklist item: Plant response rating, Foxtail, Giant tested on giant foxtail, entry CCn1nc(C(C)(C)C)cc1C(=O)Nc1cccc(C(=O)OCC2CC2)c1C , value?
10

====

System: velvetleaf
Test: Test B pre-/postemergence herbicide test
Format: in vivo, Abutilon theophrasti
Conditions: preemergence, 125 g ai/ha; 0 to 100 scale, 0 is no effect, 100 is complete control
Endpoint: Plant response rating, Velvetleaf
Just the number, please, no unit attached.

Solved entries (count: 3):
So what's the measured Plant response rating, Velvetleaf for this one? C=CCN(C)C(=O)c1cccc(NC(=O)c2cc(C(C)(C)C)nn2CC)n1
70

So what's the measured Plant response rating, Velvetleaf for this one? CCNC(=O)c1cc(C)cc(NC(=O)c2cc(C(C)(C)C)nn2CC)n1
0

So what's the measured Plant response rating, Velvetleaf for this one? CC(=NO)c1cccc(NC(=O)c2cc(C(C)(C)C)nn2CC(F)(F)F)c1
0

New cases:
So what's the measured Plant response rating, Velvetleaf for this one? CCn1nc(C(C)(C)C)cc1C(=O)Nc1cccc(C#N)c1
50

So what's the measured Plant response rating, Velvetleaf for this one? C=CCOC(=O)c1cccc(NC(=O)c2cc(C(C)(C)C)nn2CC)c1
0

So what's the measured Plant response rating, Velvetleaf for this one? CCN(CC)C(=O)c1cc(NC(=O)c2cc(C(C)(C)C)nn2CC)ccc1C
0

So what's the measured Plant response rating, Velvetleaf for this one? CCn1nc(C(C)(C)C)cc1C(=O)Nc1cccc2c1CNC2=O
0

So what's the measured Plant response rating, Velvetleaf for this one? CCN(CC)C(=O)c1cccc(NC(=O)c2cc(C(C)(C)C)nn2CC(F)(F)F)c1
0

So what's the measured Plant response rating, Velvetleaf for this one? CCCn1nc(C(C)(C)C)cc1C(=O)Nc1cccc(C(=O)NCC)c1
0

====

Listing of entries alongside the reported Ducksalad plant response rating.
System: ducksalad
Assay: Test C flooded paddy test
Assay type: in vivo, Heteranthera limosa
Details: 125 g ai/ha, scale 0 to 100 (0 no effect, 100 complete control)
Just the number, please, no unit attached.

Solved entries (count: 4):
So what's the measured Ducksalad plant response rating for this one? CCn1nc(C(C)(C)C)cc1C(=O)Nc1cccc(C(=O)N2CC=CC2)c1
75

So what's the measured Ducksalad plant response rating for this one? CCC1=NN(C(C)(C)C)CC1C(=O)Nc1cc(C(=O)N(C)CC)ccc1F (racemic)
50

So what's the measured Ducksalad plant response rating for this one? CCc1nn(C(C)(C)C)cc1C(=O)Nc1cccc(C(C)=NO)c1
65

So what's the measured Ducksalad plant response rating for this one? CCn1nc(C(C)(C)C)cc1C(=O)Nc1cc(C(=O)N2CCCC2)ccc1F
95

New cases:
So what's the measured Ducksalad plant response rating for this one? CCn1nc(C(C)(C)C)cc1C(=O)Nc1cc(C(=O)N2CCOCC2)ccc1F
85

So what's the measured Ducksalad plant response rating for this one? C=CCOc1cccc(NC(=O)c2cc(C(C)(C)C)nn2CC)c1
30

====

Listing of entries alongside the reported Plant response rating, Cocklebur.
System: cocklebur
Assay: Test C pre-/postemergence herbicide test
Format: in vivo, Xanthium strumarium
Conditions: 125 g ai/ha; scale 0 (no effect) to 100 (complete control); visual, 12 to 14 days; preemergence

Solved entries (count: 4):
So what's the measured Plant response rating, Cocklebur for this one? CCn1nc(C(C)(C)C)cc1C(=O)Nc1cccc(C(C)=NO)c1
30

So what's the measured Plant response rating, Cocklebur for this one? CCCn1nc(C(C)(C)C)cc1C(=O)Nc1cccc(C(=O)NCC)c1
0

So what's the measured Plant response rating, Cocklebur for this one? CCc1nn(C(C)(C)C)cc1C(=O)Nc1cccc(C(C)=NO)c1
0

So what's the measured Plant response rating, Cocklebur for this one? CCc1nc(C(C)(C)C)sc1C(=O)Nc1cccc(C(=O)NCC2CC2)n1
0

Now examine the next entry.
So what's the measured Plant response rating, Cocklebur for this one? CCCCn1nc(C(C)(C)C)cc1C(=O)Nc1cccc(C(=O)NCC)c1
0

====

System: large crabgrass
Assay: Test B pre-/postemergence herbicide test
Format: in vivo, Digitaria sanguinalis
Details: Preemergence, 500 g ai/ha; scale 0 to 100
Protocol: […] At the same time, plants selected from these crop and weed species and also blackgrass (Alopecurus myosuroides Huds.), wheat (Triticum aestivum L.) and wild oat (Avena fatua L.) were treated with postemergence applications of test chemicals formulated in the same manner. […] Treated plants and controls were maintained in a greenhouse for 13 to 15 days, after which time all species were compared to controls and visually evaluated. […]
Listing of entries alongside the reported Crabgrass, Large plant response rating.
Just the number, please, no unit attached.

Solved entries (count: 8):
So what's the measured Crabgrass, Large plant response rating for this one? CCNC(=O)c1cccc(NC(=O)c2cc(C(C)(C)C)nn2CC(C)C)c1
70

So what's the measured Crabgrass, Large plant response rating for this one? C#CCOC(=O)c1cccc(NC(=O)c2cc(C(C)(C)C)nn2CC)c1
0

So what's the measured Crabgrass, Large plant response rating for this one? CCn1nc(C(C)(C)C)cc1C(=O)Nc1cccc(C(=O)OC)c1
10

So what's the measured Crabgrass, Large plant response rating for this one? CCOC(=O)c1cccc(NC(=O)c2cc(C(C)(C)C)nn2CCF)c1
0

So what's the measured Crabgrass, Large plant response rating for this one? CCCn1nc(C(C)(C)C)cc1C(=O)Nc1cccc(C(=O)NCC)c1
100

So what's the measured Crabgrass, Large plant response rating for this one? C=Cn1nc(C(C)(C)C)cc1C(=O)Nc1cccc(C(=O)OCC)c1
10

So what's the measured Crabgrass, Large plant response rating for this one? CCn1nc(C(C)(C)C)cc1C(=O)Nc1cc(C(=O)OC)c(OC)cc1F
70

So what's the measured Crabgrass, Large plant response rating for this one? CCn1nc(C(C)(C)C)cc1C(=O)Nc1cccc2c1CNC2=O
90

Now examine the next entry.
So what's the measured Crabgrass, Large plant response rating for this one? CCN(CC)C(=O)c1cccc(NC(=O)c2cc(C(C)(C)C)nn2CC(F)(F)F)c1
60
